# assay_protocol: NCI Yeast Anticancer Drug Screen. Data for the rad50 strain (AID 155);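 note: 0% = growth of vehicle-only cultures of the same strain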
# condition_context: S. cerevisiae rad50 strain growth inhibition; at 50.0 µM (retest, dose inferred, filed as 5.0); active compounds read high
The panel holds about 79,000 compounds, 15% with a hit somewhere; the sample as a whole holds those more often.
The recorded growth inhibition of each item maps onto one of these classes: lower range (below 40%), middle range (40% to below 90%), upper range (90% or more)

As a guide, the following entries are already answered.
-- ask Lab note: sort N#C/C(=C\NC(=S)C(N)=S)c1nc2ccccc2s1 into the matching growth inhibition band.
-- reply upper range

-- ask Which band does CNC1=C2NC(=O)/C(C)=C\C=C\C(C)C(O)C(C)C(O)C(C)C(OC(C)=O)C(C)C(OC)/C=C/OC3(C)Oc4c(C)c(O)c(c(c4C3=O)C1=O)C2=O (centres undefined) fall in?
-- reply middle range

-- ask Hi, small favor: classify Cc1c2ccncc2c(C)c2c1sc1ccccc12 by its growth inhibition when you get a moment.
-- reply upper range

-- ask Form field 'band' for COC(=O)c1ccccc1CC1Cc2cccc(C)c2C1=O (centres undefined)
-- reply lower range

-- ask Which bin, given its growth inhibition, does O=C(Nc1ccc(Cl)c(Cl)c1Cl)Oc1c(Cl)c(Cl)c(Cl)c(Cl)c1Cl occupy?
-- reply upper range

-- ask Entry CC(=O)Sc1ccccc1C(=O)NCc1ccc(Cl)cc1 belongs to which category?
-- reply upper range

-- ask # classify by growth inhibition band: C[N+]1=C(/C=C\c2ccc(O)c3ccccc23)C(C)(C)c2ccccc21
-- reply middle range

-- ask Category of COC(=O)c1ccc(CCc2cc(O)ccc2O)cc1 , please.
-- reply upper range

-- ask Given CC1(c2ccc(S(=O)(=O)c3ccccc3)cc2)OC(=O)C=CC1=O (centres undefined) , name the class its growth inhibition places it in.
-- reply upper range

-- ask # classify by growth inhibition band: C/C(=N\OS(=O)(=O)O)SC1OC(CO)C(O)C(O)C1O (centres undefined)
-- reply lower range

Next:
-- ask Band of [Cl][Sn]([CH2][CH2][Sn]([Cl])([c]1ccccc1)[c]1ccccc1)([c]1ccccc1)[c]1ccccc1 ?
-- reply upper range

-- ask Which class is correct for the following compound? C#CC(O)c1ccc(Cl)cc1Cl (centres undefined)
-- reply upper range

-- ask Field: class (growth inhibition) — entry: Cc1[nH]nc(-c2cccnc2)c1N=NN1CCOCC1
-- reply middle range

-- ask Category of Nc1cc(=O)[nH]c(=S)[nH]1.[Pd] , please.
-- reply lower range

-- ask Could you tell me which band COc1ccc(C(=O)Nc2ccc(Cl)cc2)cc1 belongs to?
-- reply lower range

-- ask Which class does NCC(CS)C(=O)NC(CS)C(=O)NC(CS)C(=O)NCCNc1ccc(NCCNC(=O)C(CS)NC(=O)C(CS)NC(=O)C(CN)CS)c2c1C(=O)c1c(O)ccc(O)c1C2=O (centres undefined) fall in?
-- reply middle range

-- ask Exercise: read the entry CC1CCCC(C(O)(C(=O)O)C2CCCC(C)C2)C1 (centres undefined) and state which class it falls under.
-- reply middle range

-- ask Which of the defined bands does the recorded growth inhibition of CCCCc1cc2c(cc1O)CCC1C2CC[C@@]2(C)C1CC[C@@H]2O (some centres undefined) sit within?
-- reply upper range

-- ask Exam item: assign COc1cc(Nc2ccc(Oc3ccc(O)cc3)cc2)c2ncccc2c1 to the correct category.
-- reply lower range

-- ask // bin(item) where item = COC(=O)c1c(C)cccc1C1CN=NC12Cc1ccc(C)c(C)c1C2=O (centres undefined)
-- reply lower range

* * *

# assay_protocol: NCI Yeast Anticancer Drug Screen. Data for the cln2 rad14 strain (AID 165);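 note: 0% = growth equal to vehicle treated cultures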
# condition_context: S. cerevisiae cln2 rad14 strain, at 5.0 µM (retest, dose inferred, filed as 0.5), active compounds read high
The panel holds about 79,000 compounds, 15% with a hit somewhere; the sample as a whole holds those more often. Activity calls are given as the source filed them. Rule as the data show it: active = growth inhibition above about 70%; inactive = the rest.
In this section, each of the compounds is paired with its reported growth inhibition.

Solved cases below.
-- ask // returns reported growth inhibition for input CN(C)c1ccc(/C=C(\C#N)c2cccc(Cl)c2)cc1
-- reply -3% (inactive)

-- ask Endpoint output: growth inhibition of C[C@]12CC[C@H](O)CC1=CC[C@@H]1C2CC[C@]2(C)NC(=O)CCC12 (stereo not given in full) . Value?
-- reply 1% (inactive)

-- ask Returns the measured growth inhibition for the input compound. Input: Cc1ccc(Cc2n[nH]c(=O)n2N2C(=O)c3ccccc3C2=O)cc1
-- reply 9% (inactive)

Continuing:
-- ask I'd like to know its growth inhibition. The compound in question is CC1=NC(c2ccccc2)(C2(c3ccccc3)C(c3ccccc3)=C2c2ccccc2)C(=O)O1 (stereo not given)
-- reply 23% (inactive)

-- ask What value of growth inhibition has been recorded for this entry: C[Si](C)c1cccc(Cl)c1
-- reply 8% (inactive)

-- ask GET /values?readout=growth inhibition&item= CCOC(=O)/C(=C\c1cccc(C(F)(F)F)c1)P(=O)(OCC)OCC
-- reply 26% (inactive)

-- ask # input compound: CCCCN1C(=O)C(=O)N(c2ccccc2)C1=O ; wanted: its growth inhibition
-- reply -29% (inactive)

* * *

# assay_protocol: NCI Yeast Anticancer Drug Screen. Data for the sgs1 mgt1 strain (AID 161);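 note: 0% = growth of cultures given vehicle only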
# condition_context: S. cerevisiae sgs1 mgt1 strain, at 50.0 µM, active compounds read high
About 79,000 compounds went through this panel and 15% of them were active in at least one assay; those are over-represented in the sample as a whole.
Short version: growth inhibition at least 90% is True, less is False.

-- ask I'd appreciate it if you could say whether c1ccc(CCNCc2ccco2)nc1 has growth inhibition at least equal to 90%.
-- reply False

-- ask growth inhibition >= 90% for O=C1CN(CCN2CCOCC2)CC(=O)N2CCCCN12 ?
-- reply False

-- ask Check this molecule for growth inhibition at or above 90%: Cc1cccc(N=Nc2ccc(O)cc2)c1
-- reply True

-- ask Quick check: does O=C(CC(=O)c1ccccc1)CC(=O)c1ccccc1Br have growth inhibition greater than or equal to 90%?
-- reply False

-- ask Form field: growth inhibition at least 90%? Entry: CCCCCCCCCCCCCCCc1ncc(C)[nH]1
-- reply True

-- ask API: above_or_equal(metric=growth inhibition, cutoff=90%) for item CCOP(=O)(OCC)/C(C#N)=C/c1coc2cc(C)cc(C)c2c1=O
-- reply False

Kindly consider the entry below.
-- ask Can CCc1cccc(C)c1NC(=O)/C(Cl)=C(\Cl)C(=O)O be said to have growth inhibition at or above 90%?
-- reply True

* * *

# assay_protocol: NCI Yeast Anticancer Drug Screen. Data for the rad50 strain (AID 155);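 note: 0% = growth of vehicle-only cultures of the same strain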
# condition_context: S. cerevisiae rad50 strain growth inhibition; at 50.0 µM; active compounds read high
The panel holds about 79,000 compounds, 15% with a hit somewhere; the sample as a whole holds those more often.
Entry flag: yes if growth inhibition reaches 60%; no if it does not.

-- ask Textbook exercise: given the entry NC1CCCCC1N.O=C([O-])c1ccc(N=Nc2cccc([N+](=O)[O-])c2)cc1O.O=C([O-])c1ccc(N=Nc2cccc([N+](=O)[O-])c2)cc1O.[Pt+4] , state whether its growth inhibition is greater than or equal to 60%.
-- reply no

---
-- ask Given the entry CC1CCN(CCOC(=O)C(c2ccccc2)C2C=CCCC2)C1 (stereo not drawn) , answer whether its growth inhibition meets or surpasses 60%.
-- reply yes

-- ask // inclusive: growth inhibition at least 60%? input: CC(=O)OCc1cc2c(s1)C(=O)c1sccc1C2=O
-- reply no

* * *

# assay_protocol: NCI Yeast Anticancer Drug Screen. Data for the mec2-1 strain (AID 157)
# condition_context: S. cerevisiae mec2-1 strain, at 5.0 µM (retest, dose inferred, filed as 0.5), active compounds read high
About 79,000 compounds went through this panel and 15% of them were active in at least one assay; those are over-represented in the sample as a whole. Active and inactive are the calls of the source. No stated cut-off is given here; in the data, active means growth inhibition above about 70%; inactive means the rest.
Documented growth inhibition across a set of molecules

Take a look at these entries with their results.
-- ask Endpoint output: growth inhibition of CC1C(O)Oc2cc3c(cc2C1c1ccccc1O)OCO3 (stereo not given) . Value?
-- reply -41% (inactive)

-- ask Tell me the measured growth inhibition of CN(C)Cc1cc(C(C)(C)C)cc(C2CCCCC2)c1O , please.
-- reply -9% (inactive)

-- ask Given CCCCCC(Oc1ccc(Cl)cc1)C(=O)O (stereo not given) , state its recorded growth inhibition.
-- reply 2% (inactive)

-- ask Entry under review: CCCCCCCCCCCCCCC(O)C[N+](C)(CCO)CCO (stereo not given) . Reported growth inhibition?
-- reply 22% (inactive)

-- ask Can you look up the measured growth inhibition of CCCCN1C(=O)C(=O)N(c2ccccc2)C1=O for me?
-- reply -7% (inactive)

Next:
-- ask Given CCN(CC)CC(O)c1ccnc2c(O)cccc12 (stereo not given) , state its recorded growth inhibition.
-- reply 4% (inactive)

-- ask Which growth inhibition value is on record for O=C1CNCCCN2CCN(CCCNCC(=O)Nc3ccc(cc3)S(=O)(=O)c3ccc(cc3)NC(=O)CNCCCN3CCN(CCCNCC(=O)Nc4ccc(cc4)S(=O)(=O)c4ccc(cc4)N1)CC3)CC2 ?
-- reply -25% (inactive)

-- ask Which growth inhibition value is on record for O=S(=O)(Nc1ccccn1)c1ccc(N=Cc2c3ccccc3nc3cc(Cl)ccc23)cc1 ?
-- reply 5% (inactive)

-- ask Data request, read-out growth inhibition, for O=C1CCC(Cc2ccc(C(F)(F)F)cc2)C(=O)N1 (stereo not given)
-- reply -1% (inactive)

-- ask Consider the molecule shown here: Oc1cc2c(cc1C(c1ccc(F)cc1)N1CCCCC1)OCO2 (stereo not given) What is its recorded growth inhibition?
-- reply -5% (inactive)

-- ask Report growth inhibition for CCCCCCCCCCNC(=O)CBr please.
-- reply -2% (inactive)

-- ask Which growth inhibition reading was recorded for the molecule O=C1OC(c2ccc(O)cc2)=C(c2ccccc2)C1c1ccccc1 (stereo not given) ?
-- reply -7% (inactive)

-- ask Any idea what growth inhibition was measured for CCCCCCCCCCCCNCCNCCN ?
-- reply 99% (active)

-- ask Query: growth inhibition; subject: O=C(c1ccccc1)N(C1CCCCC1)C1CCCCC1
-- reply 1% (inactive)

-- ask # get_value(readout='growth inhibition', item= Cc1noc(NS(=O)(=O)c2ccc(NCc3c4ccccc4nc4cc(Cl)ccc34)cc2)c1C )
-- reply 4% (inactive)

-- ask Item under review: CCCCCCCCCCCCCCCCC#N . Reported growth inhibition?
-- reply -2% (inactive)

-- ask Which growth inhibition reading was recorded for the molecule CC(=O)Nc1ccc(C#N)c2ccccc12 ?
-- reply 42% (inactive)

-- ask I have this molecule here, CC1C[C@]2(C)C(=S)Nc3ccccc3[C@@H]2Nc2ccccc21 (stereo not given in full) , and I need its recorded growth inhibition.
-- reply 8% (inactive)

-- ask What value of growth inhibition has been recorded for this entry: COc1ccc2nc3cc(Cl)ccc3c(Nc3ccc(O)c(CN4CCN(C)CC4)c3)c2c1
-- reply 7% (inactive)

-- ask Consider the molecule shown here: CC(=O)Oc1c([N+](=O)[O-])cc(-c2ccccc2)cc1[N+](=O)[O-] What is its recorded growth inhibition?
-- reply 20% (inactive)

-- ask I'd like to know its growth inhibition. The molecule in question is O=c1c(Cl)c(Cl)oc(Cl)c1Cl
-- reply 30% (inactive)

-- ask May I ask what growth inhibition has been recorded for N#CC1CCC(c2ccccc2)(c2ccccc2)C1=O (stereo not given) ?
-- reply 5% (inactive)

-- ask Consider the molecule CCCCCC(/C=N/Nc1nc(C)cc(=O)[nH]1)=C\c1ccccc1 and give its measured growth inhibition.
-- reply -1% (inactive)

-- ask What growth inhibition value was documented for this molecule, O=c1c2ccccc2sc2c(CO)ccc(NCCN3CCCCC3)c12 ?
-- reply 6% (inactive)

-- ask Which growth inhibition value belongs to CCN(CC)CCCC(=O)Nc1cc(OC)cc2cccnc12 ?
-- reply 15% (inactive)
